target: UniProt:Q9UIF7; conditions: Compound Concentration 10.0 uM, Hit No;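 further: human MUTYH activity read as 594 nm fluorescence from cleavage and release of a quenched DNA duplex, coupled with APE1 for strand incision, lower signal meaning inhibition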
Sequence (Q9UIF7 whole entry): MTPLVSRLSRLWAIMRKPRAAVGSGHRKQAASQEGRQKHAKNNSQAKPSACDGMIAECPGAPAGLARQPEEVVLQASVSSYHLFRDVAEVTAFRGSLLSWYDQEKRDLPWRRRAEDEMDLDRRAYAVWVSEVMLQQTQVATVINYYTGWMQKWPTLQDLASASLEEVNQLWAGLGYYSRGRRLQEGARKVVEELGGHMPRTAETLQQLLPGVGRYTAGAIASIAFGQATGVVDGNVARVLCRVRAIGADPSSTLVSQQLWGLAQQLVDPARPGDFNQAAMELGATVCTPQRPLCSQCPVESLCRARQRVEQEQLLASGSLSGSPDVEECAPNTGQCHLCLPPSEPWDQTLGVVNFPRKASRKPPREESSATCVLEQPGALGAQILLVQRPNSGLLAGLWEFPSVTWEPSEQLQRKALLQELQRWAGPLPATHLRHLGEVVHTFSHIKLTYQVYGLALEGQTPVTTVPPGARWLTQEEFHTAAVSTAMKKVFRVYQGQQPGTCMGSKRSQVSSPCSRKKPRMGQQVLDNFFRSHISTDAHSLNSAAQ
Description: Inhibition of MUTYH by quantifying inhibition of MUTYH-mediated cleavage and dissociation of quenched duplex DNA oligonucleotides, measured as fluorescence at 594 nm. To generate a functional strand incision and increase turn-over this assay is coupled to APE1.
measured quantity: inhibition (%)

[[record]]
smiles_structure = "CCCCCCCCCCCCCCC[C@@H](O)[C@@H](N)COP(=O)(O)O"
target_or_test_system = "UniProt:Q9UIF7"
measured_quantity = "inhibition"
readout_number = -9.71

[[record]]
smiles_structure = "Cc1nn(C)c2nc(NNC(=O)Nc3cc(Cl)nc(Cl)c3)cc(C(C)C)c12"
target_or_test_system = "UniProt:Q9UIF7"
measured_quantity = "inhibition"
readout_number = 28.9

[[record]]
smiles_structure = "CC(C)c1cc(Oc2c(Cl)cc(-n3nc(C#N)c(=O)[nH]c3=O)cc2Cl)n[nH]c1=O"
target_or_test_system = "UniProt:Q9UIF7"
measured_quantity = "inhibition"
readout_number = 14

[[record]]
smiles_structure = "Cc1onc(-c2ccccc2Cl)c1C(=O)N(C)c1ccc(Cl)cc1"
target_or_test_system = "UniProt:Q9UIF7"
measured_quantity = "inhibition"
readout_number = 15.8

[[record]]
smiles_structure = "C[C@]1(C(=O)N(CCCC(=O)O)Cc2cccc(Cl)c2)CCN1C(=O)c1csc2ccccc12"
target_or_test_system = "UniProt:Q9UIF7"
measured_quantity = "inhibition"
readout_number = 11.5

[[record]]
smiles_structure = "Cc1ccccc1Oc1cc(-n2c(=O)cc(C(F)(F)F)[nH]c2=O)c2ccccc2c1Cl"
target_or_test_system = "UniProt:Q9UIF7"
measured_quantity = "inhibition"
readout_number = 0.715

[[record]]
smiles_structure = "CCNC(=O)c1cc2c(N3CCOC[C@@H]3C)ccnc2n1C"
target_or_test_system = "UniProt:Q9UIF7"
measured_quantity = "inhibition"
readout_number = -5.18

[[record]]
smiles_structure = "CC(C)N(CCCCOCC(=O)NS(C)(=O)=O)c1cnc(-c2ccccc2)c(-c2ccccc2)n1"
target_or_test_system = "UniProt:Q9UIF7"
measured_quantity = "inhibition"
readout_number = 47.5

[[record]]
smiles_structure = "CCc1ccccc1C(=O)Nc1n[nH]c2c(C)c(F)c(C3C(C#N)=C(C)N(C)C(C)=C3C#N)cc12"
target_or_test_system = "UniProt:Q9UIF7"
measured_quantity = "inhibition"
readout_number = 2.35

[[record]]
smiles_structure = "CN1CCN(c2cc(-c3ccccc3)nc(N)n2)CC1"
target_or_test_system = "UniProt:Q9UIF7"
measured_quantity = "inhibition"
readout_number = -4.71

